Details: in 2-butanone, 288.15 K
value_type: solubility (mole fraction)
Output: the number by itself.

[ask] Endpoint output: solubility (mole fraction) of `Cc1cc(N)n(-c2ccccc2)n1` . Value?
[reply] 0.0546

* * *

Conditions: in methanol, 290.65 K
value_type: solubility (mole fraction)
Output: the number by itself.

[ask] Endpoint output: solubility (mole fraction) of `Cc1cc(N)n(-c2ccccc2)n1` . Value?
[reply] 0.0988

* * *

Settings: in methanol, 303.15 K
value_type: solubility (mole fraction)
Output: the number by itself.

[ask] Endpoint output: solubility (mole fraction) of `Cc1cc(N)n(-c2ccccc2)n1` . Value?
[reply] 0.127

* * *

Settings: in ethanol, 293.15 K
value_type: solubility (mole fraction)
Output: the number by itself.

[ask] Endpoint output: solubility (mole fraction) of `Cc1cc(N)n(-c2ccccc2)n1` . Value?
[reply] 0.0955

* * *

Conditions: in acetonitrile, 305.65 K
value_type: solubility (mole fraction)
Output: the number by itself.

[ask] Endpoint output: solubility (mole fraction) of `Cc1cc(N)n(-c2ccccc2)n1` . Value?
[reply] 0.189

* * *

Conditions: in n-propanol, 308.15 K
value_type: solubility (mole fraction)
Output: the number by itself.

[ask] Endpoint output: solubility (mole fraction) of `Cc1cc(N)n(-c2ccccc2)n1` . Value?
[reply] 0.125

* * *

Conditions: in isopropanol, 285.65 K
value_type: solubility (mole fraction)
Output: the number by itself.

[ask] Endpoint output: solubility (mole fraction) of `Cc1cc(N)n(-c2ccccc2)n1` . Value?
[reply] 0.0593

* * *

Conditions: in 2-butanone, 300.65 K
value_type: solubility (mole fraction)
Output: the number by itself.

[ask] Endpoint output: solubility (mole fraction) of `Cc1cc(N)n(-c2ccccc2)n1` . Value?
[reply] 0.0736

* * *

Details: in 2-butanone, 308.15 K
value_type: solubility (mole fraction)
Output: the number by itself.

[ask] Endpoint output: solubility (mole fraction) of `Cc1cc(N)n(-c2ccccc2)n1` . Value?
[reply] 0.0881

* * *

Conditions: in methanol, 288.15 K
value_type: solubility (mole fraction)

[ask] Endpoint output: solubility (mole fraction) of `Cc1cc(N)n(-c2ccccc2)n1` . Value?
[reply] 0.0938

* * *

Conditions: in 2-butanone, 315.65 K
value_type: solubility (mole fraction)
Output: the number by itself.

[ask] Endpoint output: solubility (mole fraction) of `Cc1cc(N)n(-c2ccccc2)n1` . Value?
[reply] 0.105

* * *

Settings: in 2-butanone, 295.65 K
value_type: solubility (mole fraction)
Output: the number by itself.

[ask] Endpoint output: solubility (mole fraction) of `Cc1cc(N)n(-c2ccccc2)n1` . Value?
[reply] 0.0653

* * *

Conditions: in methanol, 285.65 K
value_type: solubility (mole fraction)
Output: the number by itself.

[ask] Endpoint output: solubility (mole fraction) of `Cc1cc(N)n(-c2ccccc2)n1` . Value?
[reply] 0.089
